The measured values listed here are drawn from ChEMBL document CHEMBL3232834.

Test system: MCF7
Measurement description: In vitro cytotoxicity against human MCF7 cells assessed as growth inhibition by MTT assay
Type: functional, cell-based
Assignment: determine reported IC50 for the given compounds.
State just the number; it will be interpreted in µM.

### Prompt So what's the measured IC50 for this one? O=c1oc2ccccc2c2c1CCCc1ccccc1-2
### Response 9.63

### Prompt Give its IC50 value. Item: Cc1cc2c(cc1C)-c1c(c(=O)oc3ccc(Cl)cc13)CCC2
### Response 15.8
